Target: T1, glucose-dependent insulinotropic peptide (gastric inhibitory polypeptide) receptor (GIPR), primary cAMP assay … (human, UniProt P48546 22-466)
T1 sequence (looked up): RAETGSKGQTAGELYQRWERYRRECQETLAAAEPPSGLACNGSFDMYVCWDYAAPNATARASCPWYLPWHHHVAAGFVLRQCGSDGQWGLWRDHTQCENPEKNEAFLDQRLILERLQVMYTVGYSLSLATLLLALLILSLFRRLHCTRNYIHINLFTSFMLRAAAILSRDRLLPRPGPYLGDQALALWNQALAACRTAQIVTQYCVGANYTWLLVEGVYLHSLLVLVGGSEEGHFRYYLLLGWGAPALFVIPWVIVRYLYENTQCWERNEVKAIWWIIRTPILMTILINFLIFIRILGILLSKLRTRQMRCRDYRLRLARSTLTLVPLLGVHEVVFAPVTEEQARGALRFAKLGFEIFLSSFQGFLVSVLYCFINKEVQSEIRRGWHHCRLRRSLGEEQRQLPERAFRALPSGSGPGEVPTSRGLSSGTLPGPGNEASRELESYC
Experiment: cell-based or functional assay
Starred links: 1 amine or outer side, 2 acyl side, 3 side chain; linkers in the order of their positions; H or OH if unused. Non-standard residues stand in square brackets, D forms with d. Groups on a side chain read outwards from the residue. Primed or numbered codes have the meaning given here. No end group written: not given here. *: point of attachment. γGlu = O=C(O)[C@H](CCC(=O)[*:2])N[*:1]; αMeF = C[C@](N)(Cc1ccccc1)C(=O)O; αMeK = C[C@](N)(CCCCN)C(=O)O; Lauroyl = CCCCCCCCCCCC(=O)*; αMeS = C[C@](N)(CO)C(=O)O; PEG2′ = not defined here; Aib = CC(C)(N)C(=O)O
Reported endpoint: cAMP Primary assay EC50, n1 (nM)

1) H[Aib]EGS[αMeF]TSDV[αMeS]SK([PEG2′-PEG2′-γGlu-Lauroyl])LEGEAA[αMeK]K([PEG2′-PEG2′-γGlu-Lauroyl])FIAFK([PEG2′-PEG2′-γGlu-Lauroyl])VEGG-NH2 [SEQ ID NO: 482] = 20
2) H[Aib]EGS[αMeF]TSDK([PEG2′-PEG2′-γGlu-Lauroyl])SSYLEGEAA[αMeK]K([PEG2′-PEG2′-γGlu-Lauroyl])FIAK([PEG2′-PEG2′-γGlu-Lauroyl])VVEGG-NH2 [SEQ ID NO: 458] = 20
3) H[Aib]EGS[αMeF]TSDV[αMeS]SK([PEG2′-PEG2′-γGlu-Lauroyl])LEK([PEG2′-PEG2′-γGlu-Lauroyl])EAA[αMeK]EFIK([PEG2′-PEG2′-γGlu-Lauroyl])FVVEGG-NH2 [SEQ ID NO: 447] = 19.7
4) H[Aib]EGS[αMeF]TSDV[αMeS]SK([PEG2′-PEG2′-γGlu-Lauroyl])LEK([PEG2′-PEG2′-γGlu-Lauroyl])EAA[αMeK]EFIAFK([PEG2′-PEG2′-γGlu-Lauroyl])VEGG-NH2 [SEQ ID NO: 479] = 19.8
5) H[Aib]EGS[αMeF]TSDV[αMeS]SK([PEG2′-PEG2′-γGlu-Lauroyl])LEGK([PEG2′-PEG2′-γGlu-Lauroyl])AA[αMeK]EFIAFK([PEG2′-PEG2′-γGlu-Lauroyl])VEGG-NH2 [SEQ ID NO: 480] = 20
6) H[Aib]EGS[αMeF]TSDV[αMeS]SYK([PEG2′-PEG2′-γGlu-Lauroyl])EGEK([PEG2′-PEG2′-γGlu-Lauroyl])A[αMeK]EFIAFK([PEG2′-PEG2′-γGlu-Lauroyl])VEGG-NH2 [SEQ ID NO: 485] = 19.6
7) H[Aib]EGS[αMeF]TSDVSK([PEG2′-PEG2′-γGlu-Lauroyl])YLEGEK([PEG2′-PEG2′-γGlu-Lauroyl])A[αMeK]EFIK([PEG2′-PEG2′-γGlu-Lauroyl])FVVEGG-NH2 [SEQ ID NO: 445] = 19.5

Origin of the recorded values: patent US20200079833A1
